Provenance of the data: patent US7183267B2

biological target: TEM-1 β-lactamase (Escherichia coli, UniProt P62593); assay: Isothermal titration calorimetry, binding to TEM-1 β-lactamase (Example 17); conditions: ITC
Sequence (P62593 24-286 limits assumed): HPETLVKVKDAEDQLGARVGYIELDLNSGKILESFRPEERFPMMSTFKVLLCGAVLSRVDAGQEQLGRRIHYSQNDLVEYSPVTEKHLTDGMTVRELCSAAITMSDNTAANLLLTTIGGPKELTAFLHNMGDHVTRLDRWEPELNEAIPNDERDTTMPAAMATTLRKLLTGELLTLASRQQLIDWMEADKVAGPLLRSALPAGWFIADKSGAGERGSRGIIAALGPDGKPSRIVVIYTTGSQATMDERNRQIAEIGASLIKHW
// values below are reported −TΔS

| compound | −TΔS / kcal/mol |
| --- | --- |
| O=C(Oc1ccc(OC(=O)c2cc(B(O)O)cc([N+](=O)[O-])c2)cc1)c1cc(B(O)O)cc([N+](=O)[O-])c1 | -7.725 |
| O=C(OCc1ccccc1COC(=O)c1cc(B(O)O)cc([N+](=O)[O-])c1)c1cc(B(O)O)cc([N+](=O)[O-])c1 [Compound (10a)] | -6.201 |
| O=C(Oc1c(Cl)c(Cl)c(OC(=O)c2cc(B(O)O)cc([N+](=O)[O-])c2)c(Cl)c1Cl)c1cc(B(O)O)cc([N+](=O)[O-])c1 | -4.166 |
| O=C(Oc1c(Cl)cc(Cl)cc1[N+](=O)[O-])c1cc(B(O)O)cc([N+](=O)[O-])c1 | -1.855 |
| O=C(Oc1cccc(OC(=O)c2cc(B(O)O)cc([N+](=O)[O-])c2)c1)c1cc(B(O)O)cc([N+](=O)[O-])c1 | -8.31 |
| O=C(Oc1ccccc1[N+](=O)[O-])c1cc(B(O)O)cc([N+](=O)[O-])c1 | -2.409 |
| O=C(Oc1c(Cl)cccc1[N+](=O)[O-])c1cc(B(O)O)cc([N+](=O)[O-])c1 | -5.474 |
| O=C(OCc1cccc2ccccc12)c1cc(B(O)O)cc([N+](=O)[O-])c1 | -6.388 |
| O=C(Oc1c(Cl)cc(Cl)cc1Cl)c1cc(B(O)O)cc([N+](=O)[O-])c1 | -6.55 |
| O=C(Oc1ccc(OC(=O)c2cc(B(O)O)cc([N+](=O)[O-])c2)c(Cl)c1)c1cc(B(O)O)cc([N+](=O)[O-])c1 | -7.344 |
| O=C(Oc1c(F)cccc1F)c1cc(B(O)O)cc([N+](=O)[O-])c1 | 0.799 |
| CC(C)(C)c1cc(OC(=O)c2cc(B(O)O)cc([N+](=O)[O-])c2)ccc1OC(=O)c1cc(B(O)O)cc([N+](=O)[O-])c1 | -5.654 |
| O=C(Oc1c(Cl)cccc1Cl)c1cc(B(O)O)cc([N+](=O)[O-])c1 | -4.435 |
| O=C(Oc1cc(OC(=O)c2cc(B(O)O)cc([N+](=O)[O-])c2)cc(OC(=O)c2cc(B(O)O)cc([N+](=O)[O-])c2)c1)c1cc(B(O)O)cc([N+](=O)[O-])c1 [Compound (12a)] | -5.778 |

====

target: AmpC β-lactamase (Escherichia coli, UniProt P00811); construct: made in house; host or cells: E. coli BL21 (DE3); conditions: binding to AmpC; ITC
Sequence (P00811 20-377): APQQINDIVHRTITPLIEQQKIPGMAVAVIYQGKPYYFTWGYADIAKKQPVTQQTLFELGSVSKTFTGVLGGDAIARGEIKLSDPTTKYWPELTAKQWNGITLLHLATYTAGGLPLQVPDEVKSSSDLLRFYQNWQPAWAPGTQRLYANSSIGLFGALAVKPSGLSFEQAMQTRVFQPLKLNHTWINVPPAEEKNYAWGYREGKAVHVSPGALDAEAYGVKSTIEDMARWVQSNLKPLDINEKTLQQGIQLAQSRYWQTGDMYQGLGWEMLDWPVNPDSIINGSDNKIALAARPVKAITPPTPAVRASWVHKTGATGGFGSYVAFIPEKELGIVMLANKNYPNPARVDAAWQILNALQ
property: ΔH (kcal/mol)

| compound | property | observed.result |
| --- | --- | --- |
| O=C(OCc1ccccc1)c1cc(B(O)O)cc([N+](=O)[O-])c1 [Compound F1201] | ΔH | -5.084 |
| O=C(OCc1cccc(B(O)O)c1)c1cc(O)cc(B(O)O)c1 [Compound (3g)] | ΔH | -3.677 |
| O=C(Oc1cccc(B(O)O)c1)c1cc(B(O)O)cc([N+](=O)[O-])c1 [Compound (1v)] | ΔH | -10.412 |
| O=C(Oc1cc(OC(=O)c2cc(B(O)O)cc([N+](=O)[O-])c2)cc(OC(=O)c2cc(B(O)O)cc([N+](=O)[O-])c2)c1)c1cc(B(O)O)cc([N+](=O)[O-])c1 [Compound (12a)] | ΔH | -1.47 |
| O=C(Oc1ccc(OC(=O)c2cc(B(O)O)cc([N+](=O)[O-])c2)c(Cl)c1)c1cc(B(O)O)cc([N+](=O)[O-])c1 [Compound (2b)] | ΔH | -0.225 |
| O=C(OCc1ccccc1)c1cccc(B(O)O)c1 [Compound F1001] | ΔH | -0.644 |
| O=C(Oc1c(Cl)c(Cl)c(OC(=O)c2cc(B(O)O)cc([N+](=O)[O-])c2)c(Cl)c1Cl)c1cc(B(O)O)cc([N+](=O)[O-])c1 [Compound (2c)] | ΔH | -0.473 |

====

// values below are reported ΔG
molecular target: TEM-1 β-lactamase (Escherichia coli); assay: Isothermal titration calorimetry, binding to TEM-1 β-lactamase (Example 17); conditions: ITC
property: ΔG (kcal/mol)

| compound | observed.result |
| --- | --- |
| O=C(Oc1c(Cl)c(Cl)c(OC(=O)c2cc(B(O)O)cc([N+](=O)[O-])c2)c(Cl)c1Cl)c1cc(B(O)O)cc([N+](=O)[O-])c1 | -5.814 |
| O=C(Oc1ccccc1[N+](=O)[O-])c1cc(B(O)O)cc([N+](=O)[O-])c1 | -6.42 |
| O=C(Oc1cc(OC(=O)c2cc(B(O)O)cc([N+](=O)[O-])c2)cc(OC(=O)c2cc(B(O)O)cc([N+](=O)[O-])c2)c1)c1cc(B(O)O)cc([N+](=O)[O-])c1 [Compound (12a)] | -6.468 |

====

target: TEM-1 β-lactamase (Escherichia coli, UniProt P62593); assay: Isothermal titration calorimetry, binding to TEM-1 β-lactamase (Example 17); settings: ITC
Strictly below -2 kcal/mol in ΔH: MET. Otherwise: NOT MET.

| chemical.structure | label.value |
| --- | --- |
| O=C(Oc1c(Cl)cccc1[N+](=O)[O-])c1cc(B(O)O)cc([N+](=O)[O-])c1 | NOT MET |
| O=C(Oc1c(Cl)c(Cl)c(OC(=O)c2cc(B(O)O)cc([N+](=O)[O-])c2)c(Cl)c1Cl)c1cc(B(O)O)cc([N+](=O)[O-])c1 | NOT MET |
| O=C(Oc1ccc(OC(=O)c2cc(B(O)O)cc([N+](=O)[O-])c2)cc1)c1cc(B(O)O)cc([N+](=O)[O-])c1 | NOT MET |
| O=C(Oc1c(Cl)cccc1Cl)c1cc(B(O)O)cc([N+](=O)[O-])c1 | NOT MET |
| O=C(Oc1ccccc1[N+](=O)[O-])c1cc(B(O)O)cc([N+](=O)[O-])c1 | MET |
| O=C(Oc1c(Cl)cc(Cl)cc1[N+](=O)[O-])c1cc(B(O)O)cc([N+](=O)[O-])c1 | MET |
| O=C(Oc1c(Cl)cc(Cl)cc1Cl)c1cc(B(O)O)cc([N+](=O)[O-])c1 | NOT MET |

====

// values below are reported melting point

| chemical.structure | melting point |
| --- | --- |
| COc1ccc(OC(=O)c2cc(B(O)O)cc([N+](=O)[O-])c2)cc1 | 67 °C |
| O=C(Oc1ccccc1[N+](=O)[O-])c1cc(B(O)O)cc([N+](=O)[O-])c1 | 128 to 130 °C |
| O=C(Oc1ccc([N+](=O)[O-])cc1)c1cc(B(O)O)cc([N+](=O)[O-])c1 | 205 to 207 °C |
| O=C(Oc1cccc([N+](=O)[O-])c1)c1cc(B(O)O)cc([N+](=O)[O-])c1 | 185 to 187 °C |

====

Molecular target: AmpC β-lactamase (Escherichia coli)
Construct: made in house; host or cells: E. coli BL21 (DE3)
Conditions: binding to AmpC; ITC
Experimental: Isothermal titration calorimetry was performed on a high-precision VP-ITC titration calorimeter (Microcal Inc., Northampton, Mass.). β-Lactamase solutions were titrated with inhibitors in 50 mM sodium phosphate, 2% DMSO, pH 7.0, with β-lactamase concentrations ranging from 15 to 25 μM and inhibitor concentrations ranging from 300 to 1000 μM. […] Data were analyzed using Origin 7.0 (OriginLab Corporation, Northampton, Mass.). […]
property: ΔH (kcal/mol)

| molecule | uom | observed.result |
| --- | --- | --- |
| O=C(OCc1ccccc1COC(=O)c1cc(B(O)O)cc([N+](=O)[O-])c1)c1cc(B(O)O)cc([N+](=O)[O-])c1 [Compound (10a)] | kcal/mol | -4.149 |
| O=C(Oc1c(Cl)cccc1[N+](=O)[O-])c1ccc(B(O)O)cc1F | kcal/mol | -8.486 |
| Nc1cc(B(O)O)cc(C(=O)OCc2cccc(B(O)O)c2)c1 | kcal/mol | -9.325 |
| O=C(Oc1cccc(B(O)O)c1)c1ccc(C(=O)Oc2cccc(B(O)O)c2)cc1 [Compound (11a)] | kcal/mol | -3.114 |

====

target: β-lactamase wt (Escherichia coli); test: Isothermal titration calorimetry, binding enthalpy, wild type
Sequence (P62593 24-286 limits assumed): as the sequence (P62593 24-286 limits assumed) above
// values below are reported ΔH wt

| compound | ΔH wt |
| --- | --- |
| O=C(Oc1c(Cl)cccc1[N+](=O)[O-])c1cc(B(O)O)cc([N+](=O)[O-])c1 [Compound (1h)] | -1.14 kcal/mol |
| O=C(OCc1ccccc1)c1cc(B(O)O)cc([N+](=O)[O-])c1 [Compound F1201] | -3.2 kcal/mol |
| O=C(Oc1ccccc1Cl)c1cc(B(O)O)cc([N+](=O)[O-])c1 [Compound (1j)] | -2.145 kcal/mol |
| O=C(Oc1ccccc1[N+](=O)[O-])c1cc(B(O)O)cc([N+](=O)[O-])c1 [Compound (1b)] | -3.8 kcal/mol |
| N#Cc1ccccc1OC(=O)c1cc(B(O)O)cc([N+](=O)[O-])c1 [Compound (1g)] | -5.52 kcal/mol |
| COC(=O)c1cc(B(O)O)cc([N+](=O)[O-])c1 [Compound F1212] | -4.7 kcal/mol |
